Molecular target: ADRA1D (Homo sapiens)
Construct: purchased Promega (in-house HiBiT-GPCR construct library, NanoBRET)
Sequence (P25100 1-572): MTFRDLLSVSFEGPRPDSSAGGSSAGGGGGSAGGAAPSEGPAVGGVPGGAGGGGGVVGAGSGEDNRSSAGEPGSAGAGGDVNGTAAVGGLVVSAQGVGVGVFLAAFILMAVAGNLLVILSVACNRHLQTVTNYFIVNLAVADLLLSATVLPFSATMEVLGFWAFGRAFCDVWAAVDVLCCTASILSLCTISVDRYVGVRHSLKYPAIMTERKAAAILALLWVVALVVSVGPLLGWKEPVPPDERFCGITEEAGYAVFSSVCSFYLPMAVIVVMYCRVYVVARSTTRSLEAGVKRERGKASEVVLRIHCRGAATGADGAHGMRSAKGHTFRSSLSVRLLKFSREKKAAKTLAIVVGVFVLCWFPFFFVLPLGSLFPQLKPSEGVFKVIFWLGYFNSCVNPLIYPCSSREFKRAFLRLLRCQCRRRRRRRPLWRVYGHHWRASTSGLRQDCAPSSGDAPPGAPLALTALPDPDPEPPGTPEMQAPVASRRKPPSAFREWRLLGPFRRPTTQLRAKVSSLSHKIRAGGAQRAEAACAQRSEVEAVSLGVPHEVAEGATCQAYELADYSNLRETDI
Assay: NanoBRET screen HiBiT-ADRA1D in HEK293
Assay type: binding
Conditions: ADRA1D; tracer 0.1μM

{"compound": "CCCn1c(=O)c2[nH]c(-c3ccc(OCC(=O)NCCNC(=O)CCOCCNC(=O)c4ccc(CNC(=O)CCc5ccc6n5[B-](F)(F)[N+]5=C(c7ccc[nH]7)C=CC5=C6)cc4)cc3)nc2n(CCC)c1=O", "NanoBRET Fold Response": 1.02}
{"compound": "O=C(CCOCCOCCOCCOCCNC(=O)CCc1ccc2n1[B-](F)(F)[N+]1=C(c3ccc[nH]3)C=CC1=C2)NCCCN1CCN(C2=Nc3ccccc3Oc3ccc(Cl)cc32)CC1", "NanoBRET Fold Response": 1.07}
{"compound": "CC(C)N(CC[C@H](c1ccccc1)c1cc(CCNC(=O)CCOCCOCCOCCOCCNC(=O)CCc2ccc3n2[B-](F)(F)[N+]2=C(c4ccc[nH]4)C=CC2=C3)ccc1O)C(C)C", "NanoBRET Fold Response": 0.95}
{"compound": "COc1ccccc1N1CCN(CCCCN2C(=O)c3ccc(CNC(=O)CCOCCOCCOCCOCCNC(=O)CCc4ccc5n4[B-](F)(F)[N+]4=C(c6ccc[nH]6)C=CC4=C5)cc3C2=O)CC1", "NanoBRET Fold Response": 1.10}
{"compound": "Cc1nc2n(c(=O)c1CCN1CCC(c3noc4cc(F)ccc34)CC1)CCCC2OC(=O)NCCOCCOCCOCCOCCNC(=O)CCc1ccc2n1[B-](F)(F)[N+]1=C(c3ccc[nH]3)C=CC1=C2 (stereo not drawn)", "NanoBRET Fold Response": 1.27}
{"compound": "CC(C)N(CC[C@H](c1ccccc1)c1cc(CCNC(=O)c2ccc(CNC(=O)CCc3ccc4n3[B-](F)(F)[N+]3=C(c5ccc[nH]5)C=CC3=C4)cc2)ccc1O)C(C)C", "NanoBRET Fold Response": 1.15}
{"compound": "N#CN=C(NCCCOc1cccc(CN2CCCCC2)c1)NCCNC(=O)CCOCCOCCOCCOCCNC(=O)CCc1ccc2n1[B-](F)(F)[N+]1=C(c3ccc[nH]3)C=CC1=C2", "NanoBRET Fold Response": 0.97}
{"compound": "O=C(CCc1ccc2n1[B-](F)(F)[N+]1=C(c3ccc[nH]3)C=CC1=C2)NCc1ccc(C(=O)NCCOCCC(=O)N[C@@H]2CC[C@@]3(O)[C@H]4Cc5ccc(O)c6c5[C@@]3(CCN4CC3CC3)[C@H]2O6)cc1 [Naltrexone-3-NB590]", "NanoBRET Fold Response": 1.36}
{"compound": "O=C(CCc1ccc2n1[B-](F)(F)[N+]1=C(c3ccc[nH]3)C=CC1=C2)NCCOCCOCCNC(=O)OCCOCCN1CCN(C2=Nc3ccccc3Sc3ccccc32)CC1", "NanoBRET Fold Response": 1.13}

---

molecular target: P2RY6 (Homo sapiens, UniProt Q15077); construct: purchased Promega (in-house HiBiT-GPCR construct library, NanoBRET); test: NanoBRET screen HiBiT-P2RY6 in HEK293; assay type: binding; conditions: P2RY6; tracer 1μM
Sequence (Q15077 whole entry): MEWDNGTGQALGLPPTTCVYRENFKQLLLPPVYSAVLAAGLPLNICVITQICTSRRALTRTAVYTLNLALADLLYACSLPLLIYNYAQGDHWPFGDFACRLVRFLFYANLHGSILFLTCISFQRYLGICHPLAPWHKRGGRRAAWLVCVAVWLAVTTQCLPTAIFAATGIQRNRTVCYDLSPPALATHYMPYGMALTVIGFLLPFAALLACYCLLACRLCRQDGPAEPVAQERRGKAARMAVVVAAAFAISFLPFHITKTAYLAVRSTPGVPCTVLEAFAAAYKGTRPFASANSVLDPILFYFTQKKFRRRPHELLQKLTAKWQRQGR
If the reported NanoBRET Fold Response equals or exceeds 0.9, assign Met. If not, assign Not met.

{"compound": "O=C(CCc1ccc2n1[B-](F)(F)[N+]1=C(c3ccc[nH]3)C=CC1=C2)NCc1ccc(C(=O)NCCOCCC(=O)N[C@@H]2CC[C@@]3(O)[C@H]4Cc5ccc(O)c6c5[C@@]3(CCN4CC3CC3)[C@H]2O6)cc1 [Naltrexone-3-NB590]", "assigned.class": "Not met"}
{"compound": "Cc1nc2n(c(=O)c1CCN1CCC(c3noc4cc(F)ccc34)CC1)CCCC2OC(=O)NCCOCCOCCOCCOCCNC(=O)CCc1ccc2n1[B-](F)(F)[N+]1=C(c3ccc[nH]3)C=CC1=C2 (centres unmarked) [Risperidone-2-NB590]", "assigned.class": "Met"}
{"compound": "O=C(CCOCCOCCOCCOCCNC(=O)CCc1ccc2n1[B-](F)(F)[N+]1=C(c3ccc[nH]3)C=CC1=C2)NCCCN1CCN(C2=Nc3ccccc3Oc3ccc(Cl)cc32)CC1 [Loxapine-a-2-NB590]", "assigned.class": "Met"}
{"compound": "CC(C)N(CC[C@H](c1ccccc1)c1cc(CCNC(=O)c2ccc(CNC(=O)CCc3ccc4n3[B-](F)(F)[N+]3=C(c5ccc[nH]5)C=CC3=C4)cc2)ccc1O)C(C)C [Tolterodine-BZ-NB590]", "assigned.class": "Met"}

---

target: NPFFR2 (Homo sapiens, UniProt Q9Y5X5); construct: purchased Promega (in-house HiBiT-GPCR construct library, NanoBRET); assay: NanoBRET screen HiBiT-NPFFR2 in HEK293; format: binding; conditions: NPFFR2; tracer 1μM
Sequence (Q9Y5X5 whole entry): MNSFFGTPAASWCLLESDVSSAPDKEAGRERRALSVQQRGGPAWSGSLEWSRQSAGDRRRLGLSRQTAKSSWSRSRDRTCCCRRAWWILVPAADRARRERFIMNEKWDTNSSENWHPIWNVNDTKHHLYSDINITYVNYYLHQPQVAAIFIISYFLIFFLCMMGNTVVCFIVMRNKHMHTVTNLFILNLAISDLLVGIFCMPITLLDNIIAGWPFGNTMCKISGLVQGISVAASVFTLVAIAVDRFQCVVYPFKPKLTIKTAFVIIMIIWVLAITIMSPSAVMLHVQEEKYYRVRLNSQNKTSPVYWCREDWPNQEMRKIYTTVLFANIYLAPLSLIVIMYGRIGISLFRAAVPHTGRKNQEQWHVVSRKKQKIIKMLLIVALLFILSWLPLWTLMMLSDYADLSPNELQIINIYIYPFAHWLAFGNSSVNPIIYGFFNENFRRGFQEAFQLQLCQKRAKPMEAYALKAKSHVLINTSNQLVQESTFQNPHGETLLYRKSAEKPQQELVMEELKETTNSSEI
measured.quantity: NanoBRET Fold Response

{"compound": "Cc1nc2n(c(=O)c1CCN1CCC(c3noc4cc(F)ccc34)CC1)CCCC2OC(=O)NCCOCCOCCOCCOCCNC(=O)CCc1ccc2n1[B-](F)(F)[N+]1=C(c3ccc[nH]3)C=CC1=C2 (centres unmarked) [Risperidone-2-NB590]", "measured.quantity": "NanoBRET Fold Response", "reported.result": 0.98}
{"compound": "COc1ccccc1N1CCN(CCCCN2C(=O)c3ccc(CNC(=O)CCOCCNC(=O)c4ccc(CNC(=O)CCc5ccc6n5[B-](F)(F)[N+]5=C(c7ccc[nH]7)C=CC5=C6)cc4)cc3C2=O)CC1 [NAN-190-3-NB590]", "measured.quantity": "NanoBRET Fold Response", "reported.result": 1.01}
{"compound": "Cc1cc2c(s1)Nc1ccccc1N=C2N1CCN(CCCNC(=O)CCOCCOCCOCCOCCNC(=O)CCc2ccc3n2[B-](F)(F)[N+]2=C(c4ccc[nH]4)C=CC2=C3)CC1 [Olanzapine-a-2-NB590]", "measured.quantity": "NanoBRET Fold Response", "reported.result": 1.04}
{"compound": "CCCn1c(=O)c2[nH]c(-c3ccc(OCC(=O)NCCNC(=O)CCOCCNC(=O)c4ccc(CNC(=O)CCc5ccc6n5[B-](F)(F)[N+]5=C(c7ccc[nH]7)C=CC5=C6)cc4)cc3)nc2n(CCC)c1=O [XAC-3-NB590]", "measured.quantity": "NanoBRET Fold Response", "reported.result": 1.02}
{"compound": "O=C(CCOCCOCCOCCOCCNC(=O)CCc1ccc2n1[B-](F)(F)[N+]1=C(c3ccc[nH]3)C=CC1=C2)NCCCN1CCN(C2=Nc3ccccc3Oc3ccc(Cl)cc32)CC1 [Loxapine-a-2-NB590]", "measured.quantity": "NanoBRET Fold Response", "reported.result": 1.03}

---

Target: ADORA3 (Homo sapiens, UniProt P0DMS8)
Construct: purchased Promega (in-house HiBiT-GPCR construct library, NanoBRET)
Sequence (P0DMS8 whole entry): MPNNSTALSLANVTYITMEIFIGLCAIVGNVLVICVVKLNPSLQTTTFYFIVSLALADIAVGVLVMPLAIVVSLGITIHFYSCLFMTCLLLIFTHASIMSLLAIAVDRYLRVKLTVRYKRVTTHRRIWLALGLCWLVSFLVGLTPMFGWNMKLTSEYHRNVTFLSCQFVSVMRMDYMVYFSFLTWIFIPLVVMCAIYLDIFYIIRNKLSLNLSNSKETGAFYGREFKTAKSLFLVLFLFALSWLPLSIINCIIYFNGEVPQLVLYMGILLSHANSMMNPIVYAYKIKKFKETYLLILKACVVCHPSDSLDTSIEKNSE
Experiment: NanoBRET screen HiBiT-ADORA3 in HEK293
Assay type: binding
Conditions: ADORA3; tracer 0.1μM
Procedure: Each tracer candidate was screened across the entire library of HiBiT-GPCR constructs using NanoBRET as the detection modality. As depicted in Figure 4A, the specificity of interactions was evaluated through decrease in BRET due to competitive displacement of a bound tracer by excess parental compound. Each tracer was analyzed for binding to each HiBiT-GPCR fusion in the absence and in the presence of competing parental compound. […]
measured.quantity: NanoBRET Fold Response

{"molecule": "CC(C)N(CC[C@H](c1ccccc1)c1cc(CCNC(=O)CCOCCOCCOCCOCCNC(=O)CCc2ccc3n2[B-](F)(F)[N+]2=C(c4ccc[nH]4)C=CC2=C3)ccc1O)C(C)C [Tolterodine-2-NB590]", "reported.result": 1.12}
{"molecule": "O=C(CCOCCOCCOCCOCCNC(=O)CCc1ccc2n1[B-](F)(F)[N+]1=C(c3ccc[nH]3)C=CC1=C2)NCCCN1CCN(C2=Nc3ccccc3Oc3ccc(Cl)cc32)CC1 [Loxapine-a-2-NB590]", "reported.result": 1.04}
{"molecule": "CC(C)N(CC[C@H](c1ccccc1)c1cc(CCNC(=O)c2ccc(CNC(=O)CCc3ccc4n3[B-](F)(F)[N+]3=C(c5ccc[nH]5)C=CC3=C4)cc2)ccc1O)C(C)C [Tolterodine-BZ-NB590]", "reported.result": 0.58}
{"molecule": "N#CN=C(NCCCOc1cccc(CN2CCCCC2)c1)NCCNC(=O)CCOCCOCCOCCOCCNC(=O)CCc1ccc2n1[B-](F)(F)[N+]1=C(c3ccc[nH]3)C=CC1=C2 [Aminopotentidine-2-NB590]", "reported.result": 1.16}
{"molecule": "Cc1nc2n(c(=O)c1CCN1CCC(c3noc4cc(F)ccc34)CC1)CCCC2OC(=O)NCCOCCOCCOCCOCCNC(=O)CCc1ccc2n1[B-](F)(F)[N+]1=C(c3ccc[nH]3)C=CC1=C2 (centres unmarked) [Risperidone-2-NB590]", "reported.result": 1.03}
{"molecule": "COc1ccccc1N1CCN(CCCCN2C(=O)c3ccc(CNC(=O)CCOCCOCCOCCOCCNC(=O)CCc4ccc5n4[B-](F)(F)[N+]4=C(c6ccc[nH]6)C=CC4=C5)cc3C2=O)CC1 [NAN-190-2-NB590]", "reported.result": 0.96}
{"molecule": "COc1ccccc1N1CCN(CCCCN2C(=O)c3ccc(CNC(=O)CCOCCNC(=O)c4ccc(CNC(=O)CCc5ccc6n5[B-](F)(F)[N+]5=C(c7ccc[nH]7)C=CC5=C6)cc4)cc3C2=O)CC1 [NAN-190-3-NB590]", "reported.result": 0.97}
{"molecule": "O=C(CCc1ccc2n1[B-](F)(F)[N+]1=C(c3ccc[nH]3)C=CC1=C2)NCc1ccc(C(=O)NCCOCCC(=O)N[C@@H]2CC[C@@]3(O)[C@H]4Cc5ccc(O)c6c5[C@@]3(CCN4CC3CC3)[C@H]2O6)cc1 [Naltrexone-3-NB590]", "reported.result": 0.77}
{"molecule": "O=C(CCc1ccc2n1[B-](F)(F)[N+]1=C(c3ccc[nH]3)C=CC1=C2)NCCOCCOCCNC(=O)OCCOCCN1CCN(C2=Nc3ccccc3Sc3ccccc32)CC1 [Quetiapine-a-2-NB590]", "reported.result": 0.98}
{"molecule": "CCCn1c(=O)c2[nH]c(-c3ccc(OCC(=O)NCCNC(=O)CCOCCNC(=O)c4ccc(CNC(=O)CCc5ccc6n5[B-](F)(F)[N+]5=C(c7ccc[nH]7)C=CC5=C6)cc4)cc3)nc2n(CCC)c1=O [XAC-3-NB590]", "reported.result": 12.13}
{"molecule": "Cc1cc2c(s1)Nc1ccccc1N=C2N1CCN(CCCNC(=O)CCOCCOCCOCCOCCNC(=O)CCc2ccc3n2[B-](F)(F)[N+]2=C(c4ccc[nH]4)C=CC2=C3)CC1 [Olanzapine-a-2-NB590]", "reported.result": 0.94}
